Sourced from PubChem BioAssay (NCATS)

assay: Confirmation and Secondary Assay for Modulators of Hemoglobin Beta Chain Splicing at IVS2 705 locus (AID 930); details: HeLa EGFP-705 splicing reporter, GFP fluorescence, 48 h; series mostly up to 46.1 µM;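 also: GFP fluorescence per well restored by corrected splicing of the IVS2-705 intron in EGFP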;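 as to activation: HeLa cells stably expressing the EGFP-705 splicing reporter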
The source made the active and inactive calls. Calls follow the shape of the dose curve; as a rule, active = well fitted activation curve with a large enough effect; inconclusive = small, poorly fitted or top-dose-only effect; inactive = flat fitted curve, though single readings scatter.
Outcomes: t = active, f = inactive

1. COc1c2c(cc3c1OCO3)CC[N+](C)=C2 | f
2. CC(=O)C1CCC2C3CCC4CC(O)CCC4(C)C3CC(O)C12C (centres undefined) | f
3. C=C1C2CCC3[C@@](CC[C@@H]4C(C(=O)O)CC(OC5OC(CO)C(OS(=O)(=O)O)C(OS(=O)(=O)O)C5OC(=O)CC(C)C)C[C@]34C)(C2)C1O (some centres undefined) | f
4. CC(=O)OC1C2C(OC(=O)Cc3ccccc3)C(C)CC2(OC(C)=O)C(=O)/C(C)=C/C2C(CC[C@@]13CO3)C2(C)C (some centres undefined) | f
5. COP(=S)(OC)Oc1ccc([N+](=O)[O-])cc1 | f
6. CCC(C)C(=O)O[C@@H]1C[C@@]2(C)C(c3ccoc3)OC(=O)CC23OC2(C)O[C@@]14[C@@]1(C)C(CC(=O)OC)C5(C)CC1(O)C(O)(C5OC(=O)C1(C)OC1C)C(OC(C)=O)[C@@]34O2 (some centres undefined) | f
7. O=c1cccc2n1CC1CNCC2C1 (centres undefined) | f
8. COC1=CC23CCCN2CCc2cc4c(cc2C3C1O)OCO4 (centres undefined) | f
9. CC1OC(O[C@@H]2C(O)CC(O[C@@H]3C(O)C[C@@H](OC4CC[C@]5(C)[C@H](CC[C@H]6[C@@H]5CC[C@]5(C)C(C7=CC(=O)OC7)C(O)C[C@@]65O)C4)OC3C)OC2C)CC(O)C1O (some centres undefined) | t
10. CC(=O)CC1CCCCN1 (centres undefined) | f
11. CC1(C)C(=O)C=C[C@@]2(C)C1CC(O)[C@]1(C)C2CC[C@@]2(C)C(c3ccoc3)OC(=O)C3O[C@]312 (some centres undefined) | f
12. CC1=NCCc2c1[nH]c1cc(O)ccc21 | f
13. Cc1ccccc1-c1cncnc1NCCc1cnc[nH]1 | f
14. CC(=O)OC1CC2C(C)(C)C(=O)C=C[C@]2(C)C2CC[C@]3(C)C(=CC(=O)OC3c3ccoc3)[C@]12C (some centres undefined) | f
15. CC1C(=O)OC2C1CC[C@@]1(C)C=CC(=O)[C@@]3(C)O[C@@]213 (some centres undefined) | f
16. CC(C)c1cc2c(c(O)c1O)[C@]1(C(=O)O)CCCC(C)(C)C1CC2 (some centres undefined) | f
17. C/C=C(/C)C(=O)OC1CC[C@]2(C)C3CCC4[C@]5(O)CC(O)[C@]6(O)C(CN7CC(C)CCC7[C@]6(C)O)[C@]5(O)C[C@@]42O[C@]13O (some centres undefined) | f
18. CC1C(=O)OC2CCN3CC=C(COC(=O)[C@](C)(O)[C@]1(C)O)C23 (some centres undefined) | f
19. CCNc1nc(Cl)nc(NC(C)C)n1 | f
20. CC(=O)OC1C[C@@]2(C)C(c3ccoc3)C[C@H]3O[C@@]32[C@@]2(C)C(=O)C(O)=C3C(C)(C)C(=O)C=C[C@]3(C)C12 (some centres undefined) | f
21. CC(=O)OC1CC(OC(C)=O)[C@]2(C)C(CC(OC(C)=O)[C@]3(C)C2CC[C@@]2(C)C(c4ccoc4)C(=O)C4O[C@]432)C1(C)C (some centres undefined) | f
22. CCC1CN2CCC1CC2C(O)c1ccnc2ccc(OC)cc12 (centres undefined) | f
23. O=C(O)COc1ccc(Cl)cc1Cl | f
24. CCc1cccc(C)c1N(C(=O)CCl)C(C)COC (centres undefined) | f
25. Cc1c(O)c(O)cc2c1CC=C1[C@]3(C)CC[C@]4(C)CC[C@@](C)(C(=O)O)CC4[C@]3(C)CC[C@]12C (some centres undefined) | f
26. COC(=O)COc1cc(Cl)c(Cl)cc1Cl | f
27. CC(N)C(O)c1ccc(O)c(O)c1 (centres undefined) | f
28. CC(C)OC(=O)Nc1cccc(Cl)c1 | f
29. O=C(O)CCC1NCC2CC1CN1CCCCC21 (centres undefined) | f
30. CC1=C2C3OC(=O)C(C)C3CC[C@@]2(C)C=CC1=O (some centres undefined) | f
31. ClC1=C(Cl)C2(Cl)C3C4C=CC(C4)C3C1(Cl)C2(Cl)Cl (centres undefined) | f
32. COP(N)(=O)SC (centres undefined) | f
33. CCC(C)C(=O)OC1C(O)C2C(CN3CC(C)CCC3[C@]2(C)O)C2C[C@]34O[C@@]5(O)C(OC(=O)C(C)(O)CC)CCC3(C)C5C(OC(C)=O)C(OC(C)=O)C4[C@@]21O (some centres undefined) | f
34. CC(=O)O.CC(=O)O.[Cd] | f
35. c1cc2c(cc1C1OC[C@@H]3C(c4ccc5c(c4)OCO5)OCC13)OCO2 (some centres undefined) | f
36. COc1cc(OC)c2c(c1)OC(c1ccc(OC)c(OC)c1)C(O)C2 (centres undefined) | f
37. COC1CC(OC2CC[C@@]3(C=O)C4CC[C@]5(C)C(C6=CC(=O)OC6)CC[C@@]5(O)C4CC[C@]3(O)C2)OC(C)C1O (some centres undefined) | f
38. O=c1cccc2n1CC1CC2CN2CCCCC12 (centres undefined) | f
39. CC(C)N1C(=O)c2ccccc2NS1(=O)=O | f
